Data origin: patent US11590158B2

assay: Photostability; type: physicochemical; conditions: amber vial
Where a name gives a salt, the structure may show the parent alone.
experimental.endpoint: photostability, physical form

> print(dat)
                                   compound          experimental.endpoint   observed.result
1  C[N+](C)(C)CCOC(=O)CCCCC1CCSS1 (stereo not shown) [LACE-OTs, lipoic acid choline ester tosylate]  photostability, physical form  remains the same
2  C[N+](C)(C)CCOC(=O)CCCCC1CCSS1 (stereo not shown) [LACE-OBs, lipoic acid choline ester besylate]  photostability, physical form  remains the same
3  C[N+](C)(C)CCOC(=O)CCCCC1CCSS1.[I-] (stereo not shown) [LACE-I, lipoic acid choline ester iodide]  photostability, physical form  remains the same

* * *

assay: Hygroscopicity (exposure to RH, DVS); format: physicochemical; conditions: 58% RH for one day
Structures can show the parent of a compound that is named as a salt.
experimental.endpoint: Hygroscopicity upon exposure

> print(dat)
                                   molecule  observed.result
1  C[N+](C)(C)CCOC(=O)CCCCC1CCSS1.[I-] (stereo not shown) [LACE-I, lipoic acid choline ester iodide]  non-hygroscopic
2  C[N+](C)(C)CCOC(=O)CCCCC1CCSS1 (stereo not shown) [LACE-OTs, lipoic acid choline ester tosylate]  non-hygroscopic
3  C[N+](C)(C)CCOC(=O)CCCC[C@@H]1CCSS1.[Cl-] [LACE-Cl, lipoic acid choline ester chloride]     deliquescent
4  C[N+](C)(C)CCOC(=O)CCCCC1CCSS1 (stereo not shown) [LACE-OBs, lipoic acid choline ester besylate]     deliquescent
